Biological target: T1, ZFP SBS#1336 (synthetic)
T1 chain: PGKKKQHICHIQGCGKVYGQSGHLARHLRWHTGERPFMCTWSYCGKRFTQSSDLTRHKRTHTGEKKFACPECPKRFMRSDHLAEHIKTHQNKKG
Test: EMSA
Conditions: tags: MBP fusion
measured attribute: Kd (nM)
Reply numerically in nM, unit not repeated.

Asked: I am curious: what Kd value has been reported for CGGGCTGGA (dsDNA) DNA 1: CGGGCTGGA DNA 2: TCCAGCCCG ?
Given back: 1.4
